tested on: M. tuberculosis H37Rv growth inhibition with meropenem; experiment: dose response, H37Rv, with and without meropenem (AID 434987); settings: measured here: IC90 with meropenem;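 also: growth over 7 days at 37 °C before Alamar Blue read on day 9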
Property label: IC90

Example compounds with recorded IC90:
Lab note: measured IC90 of Cc1ccc(C(=O)NCCc2nnc3ccc(SCC(=O)Nc4ccccc4C)nn23)cc1 was > 100 µM

Lab note: measured IC90 of COc1ccc2c(c1)c(CC(=O)Nc1ccc(C)cc1)c(C)n2C(=O)c1ccc(Cl)cc1 was > 100 µM

Next:
Lab note: measured IC90 of CC1CCN(CC(CS(=O)(=O)c2ccc([N+](=O)[O-])cc2)N2CCC(C)CC2)CC1 (stereo unspecified) was 31.5 µM

Lab note: measured IC90 of COc1ccc(-c2nc(-c3cccc(C)c3)no2)cc1OC was > 100 µM

Lab note: measured IC90 of CCOC(=O)Cc1nc2ccccc2[nH]1 was > 100 µM

Lab note: measured IC90 of COc1ccc2oc(=N)c(C(=O)Nc3ccccc3)cc2c1 was > 100 µM

Lab note: measured IC90 of COc1cc(OC)c2ccc(=O)oc2c1C(CC(=O)N1CCN(c2ccccc2)CC1)c1ccc2c(c1)OCO2 (stereo unspecified) was > 100 µM

Lab note: measured IC90 of O=C(NCC1COc2ccccc2O1)C1CCC(CNc2c(N3CCCCC3)c(=O)c2=O)CC1 (stereo unspecified) was 26.7 µM

Lab note: measured IC90 of COc1ccc(CN(CCC#N)C(=S)NC(=O)c2ccccc2)cc1 was > 100 µM

Lab note: measured IC90 of CC1CCc2nc(NC(=O)C3COc4ccccc4O3)sc2C1 (stereo unspecified) was > 100 µM

Lab note: measured IC90 of CCOC(=O)Cn1c(=NC(=O)C2CC2)sc2c(C)cc(C)cc21 was > 100 µM

---

system: M. tuberculosis H37Rv growth inhibition with meropenem; assay: dose response, H37Rv, with and without meropenem (AID 434987); details: measured here: IC90 with meropenem;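 also: growth over 7 days at 37 °C before Alamar Blue read on day 9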
Readings of IC90 for the listed compounds

Example compounds with recorded IC90:
Lab note: measured IC90 of O=C(CSC1CS(=O)(=O)c2cc([N+](=O)[O-])ccc21)NNC(=O)c1ccccc1 (stereo not drawn) was 13.3 µM

Lab note: measured IC90 of Cc1cc(C)n(-c2nc(-c3ccc(Cl)c(Cl)c3)cs2)n1 was > 100 µM

Next:
Lab note: measured IC90 of CCc1cc2c(-c3ccccc3)cc(=O)oc2cc1OC(C)C(C)=O (stereo not drawn) was 48.5 µM

Lab note: measured IC90 of O=C(Nc1cccc(Cl)c1N1CCOCC1)c1ccc([N+](=O)[O-])o1 was 38.2 µM

Lab note: measured IC90 of O=C(COC(=O)c1ccc(Cl)cc1[N+](=O)[O-])NNC(=O)c1cccs1 was 51.1 µM

Lab note: measured IC90 of CCOCC(=O)N1CCN(c2ccc(F)cc2)CC1 was > 100 µM

Lab note: measured IC90 of CCN(CC)CCCNC(=O)c1c(O)c2ccccc2n(Cc2ccccc2)c1=O was 13.8 µM

Lab note: measured IC90 of CCOC(=O)C1=C(C)N=c2s/c(=C\c3ccncc3)c(=O)n2C1c1ccc2c(c1)OCO2 (stereo not drawn) was > 100 µM

Lab note: measured IC90 of CN1CCN(S(=O)(=O)c2ccc(NC(=O)c3ccc(Br)s3)cc2)CC1 was > 100 µM

Lab note: measured IC90 of CC(C)(C)c1ccc(C(=O)Oc2ccc3c(c2)OCC3=O)cc1 was 29.4 µM

Lab note: measured IC90 of Cc1ccc(C)c(NC(=O)COC(=O)c2ccc(S(=O)(=O)N3CCCCC3)cc2)c1 was > 100 µM

Lab note: measured IC90 of Cc1ccccc1Cn1cc(NC(=O)CSc2nc3c(c(C(F)(F)F)n2)CCc2ccccc2-3)cn1 was > 100 µM

Lab note: measured IC90 of O=C(CC1SC(=O)NC1=O)Oc1ccc(/C=N/NC(=O)c2ccccc2O)cc1 (stereo not drawn) was > 100 µM

Lab note: measured IC90 of CCOc1ccc(/C=N/NC(=O)c2ccccc2O)cc1CN1CC2CC(C1)c1cccc(=O)n1C2 (stereo not drawn) was > 100 µM

Lab note: measured IC90 of CCOc1ccc2nc(NC(=O)c3cnccn3)sc2c1 was > 100 µM

Lab note: measured IC90 of Cc1cc2c(N=NC(=O)C3CC3c3ccccc3)c(O)[nH]c2cc1Br (stereo not drawn) was > 100 µM

Lab note: measured IC90 of Cn1c(/C=N/c2nc3ccccc3[nH]2)nc2ccccc21 was 4.17 µM

Lab note: measured IC90 of O=C1C=C2C=C[C@@H]3CC2(O1)[C@H]1CCCCN31 was > 100 µM

Lab note: measured IC90 of CCSc1nc2ccccc2c(=O)n1CCc1ccc(OC)c(OC)c1 was > 100 µM

Lab note: measured IC90 of CCc1sc2nc(SCC(=O)Nc3cc(C)on3)n(-c3cccc(OC)c3)c(=O)c2c1C was > 100 µM

Lab note: measured IC90 of CCCCn1nc2cc(C(=O)NCC34CC5CC(CC(C5)C3)C4)ccc2c1OCC was > 100 µM

Lab note: measured IC90 of O=C(Nc1ccc(N2CCCCC2)cc1)c1cc([N+](=O)[O-])cc([N+](=O)[O-])c1 was > 100 µM

Lab note: measured IC90 of CCOc1nnnc2c1sc1nc(N3CCOCC3)c3c(c12)CCCC3 was > 100 µM

---

Readings of IC50 for the listed molecules
test system: M. tuberculosis H37Rv growth inhibition with meropenem; test: dose response, H37Rv, with and without meropenem (AID 434987);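 also: growth over 7 days at 37 °C before Alamar Blue read on day 9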; conditions: M. tuberculosis H37Rv growth inhibition; measured here: IC50 without meropenem

Example molecules with recorded IC50:
Lab note: measured IC50 of CCCCCc1ccc(-c2ccc(/C=C/C(N)=O)cc2)nc1 was > 100 µM

Lab note: measured IC50 of CN1C(=O)/C(=C/c2ccc(C(=O)NC3CCCC3)cc2)Oc2ccccc21 was > 100 µM

Lab note: measured IC50 of CC(=O)Nc1ccc(S(=O)(=O)Nc2cccc3cccnc23)cc1 was 21.5 µM

Lab note: measured IC50 of CCCOc1ccc(C2Nc3cccc4cccc(c34)N2)cc1 was > 100 µM

Lab note: measured IC50 of Cc1cc(NC(=O)/C=C/c2ccccc2Cl)n(-c2nc3ccccc3[nH]2)n1 was > 100 µM

Lab note: measured IC50 of N#Cc1ccccc1/C=N/Nc1nc(-c2ccccc2)c2cc(Br)ccc2n1 was > 100 µM

Lab note: measured IC50 of S=C(NNc1ccc2ccccc2c1)NC1CCCCC1 was 20.4 µM

Lab note: measured IC50 of O=c1[nH]c(/C=C/c2cccc(Br)c2)nc2ccccc12 was > 100 µM

Next:
Lab note: measured IC50 of O=S1(=O)CCO[C@H]2Cc3ccccc3[C@H]2N1Cc1ccccc1 was > 100 µM

Lab note: measured IC50 of COc1cccc(NC(=O)C2CC2)c1 was > 100 µM

Lab note: measured IC50 of O=[N+]([O-])c1cc(Cl)cc(/C=N/NC(=S)Nc2cc(S(=O)(=O)N3CCOCC3)ccc2Cl)c1O was 18.2 µM

Lab note: measured IC50 of CSc1ncnc2c1ccn2CC(=O)Nc1ccc(C)c(C)c1 was > 100 µM

Lab note: measured IC50 of C/C(=N\NC(N)=S)c1ccc(-n2ccnc2)cc1 was > 100 µM

Lab note: measured IC50 of Cc1ccc(S(=O)(=O)Nc2cccc3cccnc23)c([N+](=O)[O-])c1 was 9.07 µM

Lab note: measured IC50 of C/C(CC(=O)NCc1ccco1)=N\NC(=O)CC#N was 43.3 µM

Lab note: measured IC50 of COCCNC(=O)COc1ccc(Oc2ccccc2)cc1 was > 100 µM

Lab note: measured IC50 of COc1ccccc1CNC(=O)c1cc2c(C)nn(Cc3ccc(F)cc3)c2s1 was > 100 µM

Lab note: measured IC50 of CCOC(=O)c1ccc(-c2ccc(C=O)o2)cc1 was 44.6 µM

---

tested on: M. tuberculosis H37Rv growth inhibition with meropenem; experiment: dose response, H37Rv, with and without meropenem (AID 434987); details: measured here: IC90 with meropenem;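 also: growth over 7 days at 37 °C before Alamar Blue read on day 9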
Property label: IC90

Example compounds with recorded IC90:
Lab note: measured IC90 of CCOC(=O)c1c(C)n(-c2ccccc2)c2ccc(OCCN(C)C)cc12 was 21.7 µM

Lab note: measured IC90 of O=C(CCSc1nnc(-c2ccncc2)o1)Nc1ccccc1Cl was > 100 µM

Lab note: measured IC90 of CS/C(N)=N/N=C/c1cc(Br)cc(Br)c1O was > 100 µM

Next:
Lab note: measured IC90 of Cc1ccc(S(=O)(=O)NCCCCCC(=O)Nc2ccccn2)cc1 was > 100 µM

Lab note: measured IC90 of FC(F)Oc1ccccc1C1CC(c2ccc(Br)s2)Nc2ncnn21 (stereo not drawn) was > 100 µM

The values you see were collected from PubChem BioAssay AID434987.
